# target.entity: human adrenergic-α2C receptor (Homo sapiens)
# Construct: expressed in transfected cells; host or cells: CHO cells, stably transfected; membrane preparation
# Sequence (P18825 1-462): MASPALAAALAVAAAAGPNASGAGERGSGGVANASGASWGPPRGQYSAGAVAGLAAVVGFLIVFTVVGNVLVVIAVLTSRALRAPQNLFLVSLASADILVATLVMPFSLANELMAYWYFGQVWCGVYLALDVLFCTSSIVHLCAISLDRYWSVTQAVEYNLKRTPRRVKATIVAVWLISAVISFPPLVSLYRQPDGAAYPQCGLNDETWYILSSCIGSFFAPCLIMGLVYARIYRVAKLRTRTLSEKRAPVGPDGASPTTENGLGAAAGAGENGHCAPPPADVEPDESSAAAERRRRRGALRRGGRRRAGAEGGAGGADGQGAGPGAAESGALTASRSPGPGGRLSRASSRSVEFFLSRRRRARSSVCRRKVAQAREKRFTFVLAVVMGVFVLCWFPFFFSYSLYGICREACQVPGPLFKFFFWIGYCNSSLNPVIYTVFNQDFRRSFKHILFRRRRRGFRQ
# method.description: Radioligand binding experiment for hα2C-adrenoceptor ([3H]raulwolscine)
# condition.context: [3H]raulwolscine 1 nM, 60 minutes at 25° C.
value.type: h-α2C pIC50

smiles.repr	h-α2C pIC50
O=C(NCCCc1ccccc1)NCc1ccc(-n2ccnc(NC3CCN(Cc4ccc5ccccc5c4)CC3)c2=O)cc1	7.1
CN1CCN(Cc2ccc(-n3ccnc(NC4CCN(Cc5ccc6ccccc6c5)CC4)c3=O)cc2)CC1	7.8
O=c1c(NC2CCN(Cc3ccc4ccccc4c3)CC2)nccn1-c1ccc(CN2CCC(F)CC2)cc1	8.1
O=C(NCc1ccc(-n2ccnc(NC3CCN(Cc4ccc5ccccc5c4)CC3)c2=O)cc1)c1ccc(F)cc1	8.1
Cc1ccc(CNCc2ccc(-n3ccnc(NC4CCN(Cc5ccc6ccccc6c5)CC4)c3=O)cc2)o1.Cl.Cl	7.6
CN(Cc1ccccc1)Cc1ccc(-n2ccnc(NC3CCN(Cc4ccc5ccccc5c4)CC3)c2=O)cc1	7.5
C=CCCC(=O)NCc1ccc(-n2ccnc(NC3CCN(Cc4ccc5ccccc5c4)CC3)c2=O)cc1	7.5
O=C(NCc1ccc(-n2ccnc(NC3CCN(Cc4ccc5ccccc5c4)CC3)c2=O)cc1)Nc1ccccc1	7.2
